TESTED TARGET: protein farnesyltransferase (Rattus norvegicus, UniProt Q02293+Q04631)
Construct: The enzyme is purified according to Reiss, Y., et al., Cell, 62: 81-88 (1990), utilizing steps one through three; from tissue; host or cells: rat brain
EXPERIMENT SUMMARY: Inhibition of farnesyltransferase (scintillation proximity assay, rat brain enzyme, biotin-K Ras B fragment substrate)
Format: biochemical
SETUP CONDITIONS: read-out: % inhibition of farnesyltransferase at 1 × 10^-6 M; 1 × 10^-6 M (Table 2)
Structures can show the parent of a compound that is named as a salt.
MEASURED PROPERTY: inhibition at 1 µM (%)

// known answers, use as guide
CSCC[C@H](NC(=O)c1ccc(CN(C(C)C)C2(Cc3ccccc3)CCCC2)cc1-c1ccccc1C)C(=O)O	72
CSCC[C@H](NC(=O)c1ccc(/C=C/c2ccc(Oc3ccccc3)nn2)cc1-c1ccccc1C)C(=O)O [Example 810, lithium salt]	89
CSCC[C@H](NC(=O)c1ccc(S(=O)(=O)NCCCn2ccnc2)cc1-c1ccccc1C)C(=O)O [Example 777, lithium salt]	83
CSCC[C@H](NC(=O)c1ccc(CN(C2CC2)C(C)(C)CC2CCCCC2)cc1-c1ccccc1C)C(=O)O	63
CSCC[C@H](NC(=O)c1ccc(CCCC(=O)c2ccc3ccccc3c2)cc1-c1ccccc1C)C(=O)O [Example 473, lithium salt]	96

A: CSCC[C@H](NC(=O)c1ccc(CN(C2CC2)C2(CC3CCCCC3)CCC2)cc1-c1ccccc1C)C(=O)O
B: CSCC[C@H](NC(=O)c1ccc(S(=O)(=O)NCCN2CCCCC2)cc1-c1ccccc1C)C(=O)O [Example 774, lithium salt]
Q: # min-compare on inhibition at 1 µM between A and B Response format: the label of the selected entry.
Ans: B
